- tested-on: Human Factor XIIa (Homo sapiens (Human))
- Sequence (P00748 373-615): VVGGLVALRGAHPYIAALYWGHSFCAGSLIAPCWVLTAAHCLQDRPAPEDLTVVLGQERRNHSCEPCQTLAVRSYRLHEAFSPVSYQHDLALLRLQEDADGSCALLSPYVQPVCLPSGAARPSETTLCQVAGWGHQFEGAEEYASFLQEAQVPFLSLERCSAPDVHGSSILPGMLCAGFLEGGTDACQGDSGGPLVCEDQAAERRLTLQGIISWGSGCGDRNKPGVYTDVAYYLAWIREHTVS
assay-metric: IC50

Some compounds with recorded IC50:
Request: Please report the measured IC50 for CN1C[C@@H]2C(COc3ccc(CNc4ccc5c(N)nccc5c4)cn3)[C@@H]2C1 (some centres unmarked)
Response: 0.3 to 1 µM

Request: Provide IC50 value for the following compound: Nc1nccc2c(NCc3cnc(NCCC(=O)N4CCCC4)nc3)cccc12
Response: 10 to 40 µM

Request: State, in one line, measured IC50 of CC1CN(c2ccc(CNc3cccc4c(N)nccc34)cn2)Cc2nnc(C(F)(F)F)n21 (single isomer, unassigned) [Example 1296]
Response: 1 to 3 µM

Give me IC50 for each of these compounds, listed below.
1. CC(C)N1CCC(CN(CCCO)C(=O)c2cccc(CNc3cccc4c(N)nccc34)c2)CC1
2. CN1CCC(COc2cc(CNc3ccnc4[nH]ccc34)ccn2)CC1

Response:
["3 to 10 µM", "10 to 40 µM"]

Batch of 3 compounds: report IC50 for each.
1. Nc1nccc2c(NCc3ccc(N4CCn5nccc5C4CO)nc3)cccc12 (centres unmarked)
2. CN1CCC(Oc2ccc(CNc3ccc4c(N)nccc4c3)cn2)CC1
3. CN1CC2CCC(C1)C2COc1cc(CNc2ccc3c(N)nccc3c2)ccn1 (centres unmarked)

Response:
1: 3 to 10 µM; 2: 0.3 to 1 µM; 3: 0.01 to 0.1 µM

###

- protocol-text: Pharmacokinetics following a single intravenous dose and a single oral dose in male Sprague-Dawley rats (oral bioavailability, half-life)
- Assay type: in vivo
- settings: rat, plasma, 5 mg/kg, 10% DMSO/10% Cremophor EL/80% SWFI, read-out: F % (oral bioavailability)
assay-metric: bioavailability (%)
Answers are plain numbers, in %.

Request: Return bioavailability (reported value) for this compound: CN1CCC(OCc2ccc(CNc3cccc4c(N)nccc34)c(F)c2)CC1 [Example 2197]
Response: 26.6

###

Record form. Attribute: IC50. Fill in for each entry.
- tested-on: FXa (Homo sapiens (Human), UniProt P00742)
- Sequence (P00742 235-488): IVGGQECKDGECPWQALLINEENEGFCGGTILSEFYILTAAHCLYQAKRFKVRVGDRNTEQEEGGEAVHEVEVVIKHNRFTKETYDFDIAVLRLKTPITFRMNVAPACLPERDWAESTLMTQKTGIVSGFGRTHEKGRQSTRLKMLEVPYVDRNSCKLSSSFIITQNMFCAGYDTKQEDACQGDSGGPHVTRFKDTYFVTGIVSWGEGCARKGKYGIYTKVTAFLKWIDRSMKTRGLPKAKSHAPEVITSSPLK
- Sequence (P00742 41-179 partner): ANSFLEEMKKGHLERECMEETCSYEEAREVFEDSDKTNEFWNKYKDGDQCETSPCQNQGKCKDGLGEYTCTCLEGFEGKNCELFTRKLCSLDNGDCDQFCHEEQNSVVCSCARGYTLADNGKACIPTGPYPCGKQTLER

// for each compound in input: emit IC50
1. Cc1nc(N2CCn3c(nnc3C(F)(F)F)C2)ccc1CNc1cccc2c(N)nccc12
2. CN1C[C@H](COc2cc(CNc3cccc4c(N)nccc34)ccn2)OC1=O
3. CN1CCC(OCc2ccc(CNc3ccc4cnccc4c3)cc2)CC1
4. Cc1cc(NCc2ccnc(OCC3CCN(C)CC3)c2)cc2ccncc12
5. CC(C)N1CC2(CN(Cc3ccc(CNc4cccc5c(N)nccc45)c(F)c3)C2)C1

Response:
["> 40 µM", "> 40 µM", "> 20 µM", "> 100 µM", "> 40 µM"]

Working through the 3 compounds below one at a time, give IC50 for each.
1. CC(C)N1C[C@@H]2C[C@H]1CN2CCc1ccc(CNc2cccc3c(N)nccc23)c(F)c1 (stereo in doubt)
2. CN1CCC(NC(=O)c2cc(CNc3cccc4c(N)nccc34)ccn2)CC1
3. CC(C)N1C[C@H]2C[C@@H]1CN2Cc1cc(CNc2cccc3c(N)nccc23)ccn1

Response:
["> 40 µM", "> 40 µM", "> 40 µM"]

###

- tested-on: Plasma Kallikrein (Homo sapiens (Human), UniProt P03952)
- Sequence (P03952 391-638): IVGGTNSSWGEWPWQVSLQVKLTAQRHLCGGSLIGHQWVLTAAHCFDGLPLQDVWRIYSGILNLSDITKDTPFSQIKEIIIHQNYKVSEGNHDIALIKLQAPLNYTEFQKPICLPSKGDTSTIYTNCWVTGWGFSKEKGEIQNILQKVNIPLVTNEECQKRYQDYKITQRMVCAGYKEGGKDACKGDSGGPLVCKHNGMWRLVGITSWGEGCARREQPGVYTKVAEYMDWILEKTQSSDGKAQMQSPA
- Sequence (P03952 20-390 partner): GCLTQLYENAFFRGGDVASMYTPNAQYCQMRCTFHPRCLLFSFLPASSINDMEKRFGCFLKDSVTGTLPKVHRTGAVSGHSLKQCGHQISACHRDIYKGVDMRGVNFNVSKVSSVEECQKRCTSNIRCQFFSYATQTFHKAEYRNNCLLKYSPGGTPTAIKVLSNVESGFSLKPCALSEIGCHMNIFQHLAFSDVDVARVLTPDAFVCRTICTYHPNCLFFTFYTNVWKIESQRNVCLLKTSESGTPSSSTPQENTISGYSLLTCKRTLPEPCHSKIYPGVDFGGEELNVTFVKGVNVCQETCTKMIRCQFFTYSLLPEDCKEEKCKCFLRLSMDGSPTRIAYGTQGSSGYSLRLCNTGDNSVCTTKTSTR
- protocol-text: Determination of related protease inhibition: Plasma Kallikrein (fluorogenic substrate at Km)
- settings: 25° C., read-out: IC50 (human PKal)
I'd be grateful if you could share measured IC50 for these entries.

Request: Indicate its recorded IC50; the compound in question is Nc1ncc(Cl)c2cc(NCc3ccnc(OCC4CCCn5ccnc54)c3)ccc12 (single isomer, unassigned) [Example 4451]
Response: > 40 µM

Request: # return recorded IC50 for entry CN1CCC(CNc2ccc(CNc3cc(C(F)(F)F)cc4[nH]c(Cl)cc34)cn2)CC1
Response: 3 to 10 µM

Request: Using the record for CC(C)N1CCC(CN(CCCO)C(=O)c2cccc(CNc3cccc4c(N)nccc34)c2)CC1 [Example 5441] , state its measured IC50.
Response: > 40 µM

Request: Return IC50 (reported value) for this compound: CN1CCC(OCc2ccc(COc3ccc4c(N)nccc4c3)cc2)CC1
Response: 10 to 40 µM

Request: Assign IC50 to the following record: CN1CCC(CNc2ccc(CNc3ccn4ccnc4c3)cn2)CC1
Response: > 40 µM

Please state IC50 for every compound in the list that follows.
1. Nc1ncc(Cl)c2cc(NCc3ccc(CCN4CCOCC4)cc3F)ccc12
2. Nc1ncc(F)c2c(NCc3ccnc(OCC4CCn5ccnc5C4)c3)cccc12 (stereo not shown)

Response:
1: > 40 µM; 2: > 40 µM

For each of the compounds below, state IC50.
1. CN1C[C@H](COc2cc(CNc3cccc4c(N)nccc34)ccn2)OC1=O
2. CC(C)N1C[C@H]2C[C@@H]1CN2CCc1ccc(CNc2ccc3c(N)ncc(Cl)c3c2)c(F)c1
3. CN1CCC(CNc2ccc(CNc3ccncc3)cn2)CC1
4. CN1CCC(OCc2ccc(CN(C)c3ccc4c(N)nccc4c3)cc2)CC1

Response:
> 40 µM
10 to 40 µM
> 40 µM
3 to 10 µM
